Origin of values: patent US20080160035A1

Listed next: entries and their corresponding STAT6 Bioassay IC50 (HEK293 STAT6 luciferase, 40 pM hIL-13).
# assayed.target: T1, hIL-4R on cells (STAT6-transfected HEK293, TF1, TF1/A12) (human, UniProt P24394 26-825)
# T1 sequence (looked up): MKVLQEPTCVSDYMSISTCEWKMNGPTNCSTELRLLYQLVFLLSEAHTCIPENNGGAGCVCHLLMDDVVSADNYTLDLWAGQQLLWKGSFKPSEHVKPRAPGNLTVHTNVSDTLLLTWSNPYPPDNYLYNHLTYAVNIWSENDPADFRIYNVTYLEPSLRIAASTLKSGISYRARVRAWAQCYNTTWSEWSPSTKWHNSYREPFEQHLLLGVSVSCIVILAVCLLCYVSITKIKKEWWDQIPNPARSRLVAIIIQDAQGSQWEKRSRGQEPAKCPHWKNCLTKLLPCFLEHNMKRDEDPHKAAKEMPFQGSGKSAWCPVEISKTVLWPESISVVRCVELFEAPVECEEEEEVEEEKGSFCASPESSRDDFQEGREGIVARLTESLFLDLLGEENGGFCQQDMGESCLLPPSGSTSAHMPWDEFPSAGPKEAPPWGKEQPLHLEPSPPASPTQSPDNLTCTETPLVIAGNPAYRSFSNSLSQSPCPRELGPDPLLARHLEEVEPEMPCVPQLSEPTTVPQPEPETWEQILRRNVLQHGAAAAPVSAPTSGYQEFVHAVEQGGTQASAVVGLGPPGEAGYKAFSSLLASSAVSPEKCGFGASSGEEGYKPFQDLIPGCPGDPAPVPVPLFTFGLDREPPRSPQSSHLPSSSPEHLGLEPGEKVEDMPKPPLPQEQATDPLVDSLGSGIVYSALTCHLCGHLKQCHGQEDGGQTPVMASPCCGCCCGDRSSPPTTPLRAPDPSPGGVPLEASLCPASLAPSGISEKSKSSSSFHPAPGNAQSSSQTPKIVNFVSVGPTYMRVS
# method: cell-based or functional assay
The reply should contain only the number, in pM.

Below, 3 binders whose answers are already recorded.
{"columns": ["binder", "value.observed"],
 "data": [
  ["VAK5H4-4 (antibody, V domains shown, Apparently tested with mouse constant region (anti-mouse IgG capture/detection)) VH: QVRLVESGGGVVQPGGSLRLSCVASGFTFRSYGMHWVRQAPGRGLEWVAVISYDGSKTFYVDSVKVRFTISRDNSKNTLYLEMNSLRVDDTAVYFCVKEGRSGSWFDPWGQGTLVAVSS VL: DIQMTQSPSSLSASVGDRVTITCRASQAINNFLAWFQQKPGKTPNSLIFATSSLQSGVPSRFSAGGSGTDFTLTISSLQPEDFATYYCQQYNSHPWTFGQGTKVEIK", 84],
  ["VAB 16F3-1 (antibody, V domains shown, Apparently tested with mouse constant region (anti-mouse IgG capture/detection)) VH: QVQLVQSGAEVKKPGASVKVSCKASGYTFNSYGISWVRQAPGQGLEWMGWIRTYNGNTNYAQKLQGRVTMTTDTSTSTAYMELRSLRSDDTAVYYCARDEARIVVAGTTPYYYGMDVWGQGTTVTVSS VL: DIQMTQSPSSVSASVGDRVTITCRASQDISIWLAWYQQSPGKAPKLLINVASRLQSGVPSRFSGSGSGTDFTLTINSLQPEDFVTYYCQQANSFPITFGQGTRLATK", 18],
  ["VAB 16G1-1 (antibody, V domains shown, 403/405; 407/409 without saying which was assayed; Apparently tested with mouse constant region (anti-mouse IgG capture/detection)) VH: EVKLAESGGGLVQPGGSLRLSCAASGFTFSSHWMNWVRQAPGKGLEWVANIKQDGSDKYYVDSVKGRFTISRDNAKNSLYLQLNSLIAEDTAVYYCARDRGVRPPRGAFDIWGQGTMVTVSS VL: DIQMTQSPSSVSASVGDRVTITCRASQGISSWLAWYQQKPGKAPKLLIYAASSFQSGVPSRFSGSGSGTDFTLTISSLQPEDFATYFCQQANSFPLTFGGGTTVEIK", 90]
]}

Output measured STAT6 Bioassay IC50 (HEK293 STAT6 luciferase, 40 pM hIL-13) for this item: VAK8G11-13 (antibody, V domains shown, Apparently tested with mouse constant region (anti-mouse IgG capture/detection)) VH: QVRLVESGGGVVQPGGSLRLSCAASGFIFRSYGMHWVRQAPGRGLEWVAVISYDGSKTFYVDSVKVRFTISRDNSKNTLYLEMNSLRVDDTAVYFCVKEGRSGSWFDPWGQGTLVAVSS VL: DIHMTQSPSSLSASVGDRVTITCRASQAINNFLAWFQQKPGKTPKSLIFATSSLQSGVPSRFSGSGSGTDFTLTISSLQPEDFATYYCQQYNSHPWTFGQGTKVEIK 60
